meta.source: PubChem BioAssay (NCATS)

PROTOCOL TEXT: Quantitative High-Throughput drug screen in 47 multiple myeloma cell lines against the NCATS MIPE library collection: KMS28PE_JCRB cell viability assay (AID 1918983); note: nearly all actives have a fitted effect of over 35% in size; note: potency is the fitted concentration of half-maximal effect
STUDY CONDITIONS: KMS28PE multiple myeloma viability, CellTiter-Glo ATP, 48 h; series mostly up to 45.8 µM
Results filed as inconclusive are left out. Activity calls are given as the source filed them. Calls come from the whole dose curve; as a rule, active = well fitted cell-killing curve with a large enough effect; inconclusive = small, poorly fitted or top-dose-only effect, or effect the other way; inactive = no such curve, though single readings can be large or run the other way.
MEASURED PARAMETER: Potency

COMPOUND: CCC(C)n1ncn(-c2ccc(N3CCN(c4ccc(OC[C@H]5CO[C@](Cn6cncn6)(c6ccc(Cl)cc6Cl)O5)cc4)CC3)cc2)c1=O (some centres undefined)
Potency: 14.8 µM (active)
--
COMPOUND: OCCC#Cc1nc(-c2ccc(F)cc2)c(-c2ccncc2)n1CCCc1ccccc1
Potency: inactive
--
COMPOUND: CCOc1cc(C=C2C(=O)N(c3ccccc3)N=C2C)cc(Cl)c1OCC(=O)OC
Potency: 6.62 µM (active)
--
COMPOUND: Nc1nc2[nH]cc(CCc3ccc(C(=O)N[C@@H](CCC(=O)O)C(=O)O)cc3)c2c(=O)[nH]1
Potency: inactive
--
COMPOUND: O=C(NOC[C@H](O)CO)c1ccc(F)c(F)c1Nc1ccc(I)cc1F
Potency: 2.96 µM (active)
--
COMPOUND: CNC(=O)c1ccc(N2C(=S)N(c3ccc(C#N)c(C(F)(F)F)c3)C(=O)C2(C)C)cc1F
Potency: inactive
--
COMPOUND: COc1ccc(-c2ccc3c(N4CCOCC4)nc(N4C[C@@H](C)O[C@@H](C)C4)nc3n2)cc1CO
Potency: 0.187 µM (active)
--
COMPOUND: Cc1ccccc1C(C(=O)NC1CCCC1)N(C(=O)Cn1cnc2ccccc21)c1cccc(F)c1 (centres undefined)
Potency: inactive

GET /values?readout=Potency&item= CCCCNc1cc(C(=O)O)cc(S(N)(=O)=O)c1Oc1ccccc1 inactive
